Test: Plasma Stability (37° C.), nude mouse
Threshold check on Plasma Stability (37° C.) % Remaining (3-3.5 hours) nude mouse: at or above 30% gives yes (1), strictly below gives no (0).

Example results:
[
  {
    "chem.smiles": "COc1ccc2[nH]c(-c3ccccc3)c(/C=C3\\Oc4cc(OC(=O)OC(C)C)cc(OC(=O)OC(C)C)c4C3=O)c2c1",
    "qualitative.label": "no (0)"
  },
  {
    "chem.smiles": "COc1ccc2c(c1)c(/C=C1\\Oc3cc(OC(=O)CC(C)C)cc(OC(=O)CC(C)C)c3C1=O)cn2CCCN(C)C",
    "qualitative.label": "no (0)"
  },
  {
    "chem.smiles": "COc1ccc2[nH]c(-c3ccccc3)c(/C=C3\\Oc4cc(O)ccc4C3=O)c2c1",
    "qualitative.label": "yes (1)"
  },
  {
    "chem.smiles": "COc1ccc2[nH]c(-c3ccccc3)c(/C=C3\\Oc4cc(OC(=O)C(C)(C)C)cc(OC(=O)C(C)(C)C)c4C3=O)c2c1",
    "qualitative.label": "no (0)"
  },
  {
    "chem.smiles": "COc1ccc2c(c1)c(/C=C1\\Oc3cc(OC(=O)N(C)C)cc(OC(=O)N(C)C)c3C1=O)cn2CCCN(C)C",
    "qualitative.label": "no (0)"
  }
]

Query string: // inclusive: Plasma Stability (37° C.) % Remaining (3-3.5 hours) nude mouse at least 30%? input: COc1ccc2c(c1)c(/C=C1\Oc3cc(OC(=O)N(C(C)C)C(C)C)ccc3C1=O)c(C)n2CCN1CCN(C)CC1
Result string: yes (1)

Query string: Given the entry COc1ccc2[nH]c(-c3ccccc3)c(/C=C3\Oc4cc(OC(C)=O)cc(OC(C)=O)c4C3=O)c2c1 , answer whether its Plasma Stability (37° C.) % Remaining (3-3.5 hours) nude mouse meets or surpasses 30%.
Result string: yes (1)

====

Buffer Stability (37° C.) % Remaining (at 16-23 hours) pH 7.4 by entry:
Assay: Buffer Stability (37° C.)
Conditions: pH 7.4
Hi, when you answer, please include the unit after the number. Thanks!

Consider the worked cases shown below.
[
  {
    "chem.smiles": "COC(=O)Oc1cc(OC(=O)OC)c2c(c1)O/C(=C\\c1c(-c3ccccc3)[nH]c3ccc(OC)cc13)C2=O",
    "value": "0%"
  },
  {
    "chem.smiles": "CN(C)C(=O)Oc1cc(OC(=O)N(C)C)c2c(c1)O/C(=C\\c1cn(C)c3nccc(-c4ccccc4)c13)C2=O",
    "value": "100%"
  },
  {
    "chem.smiles": "CN(C)C(=O)Oc1cccc2c1C(=O)/C(=C/c1cn(C)c3nccc(N4CC5CCC(C4)O5)c13)O2",
    "value": "100%"
  }
]

Query string: Can you look up the measured Buffer Stability (37° C.) % Remaining (at 16-23 hours) pH 7.4 of COc1ccc2c(c1)c(/C=C1\Oc3cc(OC(=O)c4ccccc4)cc(OC(=O)c4ccccc4)c3C1=O)c(C)n2CCN1CCN(C)CC1 for me?
Result string: 4%

Query string: Look at this molecule and give its reported Buffer Stability (37° C.) % Remaining (at 16-23 hours) pH 7.4. COc1ccc2c(c1)c(/C=C1\Oc3cc(OC(=O)N(C)c4ccccc4)cc(OC(=O)N(C)c4ccccc4)c3C1=O)cn2CCCN(C)C
Result string: 100%

Query string: Dear colleague, I am looking for the recorded Buffer Stability (37° C.) % Remaining (at 16-23 hours) pH 7.4 of the following molecule: COc1ccc2c(c1)c(/C=C1\Oc3cc(O)cc(O)c3C1=O)c(C)n2CCN1CCN(C)CC1
Result string: 66%

Query string: Param item = COc1ccc2[nH]c(-c3ccccc3)c(C=C3Oc4cc(O)cc(O)c4C3=O)c2c1 ; retrieve measured Buffer Stability (37° C.) % Remaining (at 16-23 hours) pH 7.4.
Result string: 68%

====

Test: CACO2 permeability a-b/b-a
Type: in vitro ADME
Conditions: human, Caco-2; a − b (first value of cell); read-out: CACO2 Pe a − b
Decide by Papp A→B: equal to or exceeding 1 ×10⁻⁶ cm/s means T, less means F.

Examples from the recorded data:
[
  {
    "compound": "COc1ccc2c(c1)c(/C=C1\\Oc3cc(OC(=O)N(C)C)cc(OC(=O)N(C)C)c3C1=O)cn2CCCN(C)C [Example 8]",
    "qualitative.label": "T"
  },
  {
    "compound": "Cn1cc(/C=C2\\Oc3cccc(O)c3C2=O)c2c(N3CC4CCC(C3)O4)ccnc21",
    "qualitative.label": "T"
  },
  {
    "compound": "COc1ccc2c(c1)c(/C=C1\\Oc3cc(OC(=O)N(C)C)cc(OC(=O)N(C)C)c3C1=O)c(C)n2CCN1CCN(C)CC1 [Example 12]",
    "qualitative.label": "T"
  },
  {
    "compound": "COc1ccc2[nH]c(-c3ccccc3)c(C=C3Oc4cc(O)cc(O)c4C3=O)c2c1",
    "qualitative.label": "T"
  }
]

Query string: Check if Papp A→B >= 1 ×10⁻⁶ cm/s (inclusive). Item: Cn1cc(/C=C2\Oc3cc(O)cc(O)c3C2=O)c2c(-c3ccccc3)ccnc21
Result string: T

Query string: Does Papp A→B meet or surpass 1 ×10⁻⁶ cm/s for CN(C)C(=O)Oc1cc(OC(=O)N(C)C)c2c(c1)O/C(=C\c1cn(C)c3nccc(-c4ccccc4)c13)C2=O [Example 43] ?
Result string: T

Query string: Does COc1ccc2[nH]c(-c3ccccc3)c(/C=C3\Oc4cc(O)ccc4C3=O)c2c1 have a reported Papp A→B of at least 1 ×10⁻⁶ cm/s?
Result string: F

Query string: Decide: Papp A→B of COc1ccc2[nH]c(-c3ccccc3)c(/C=C3\Oc4cc(OC(=O)N(C)C)cc(OC(=O)N(C)C)c4C3=O)c2c1 [Example 30] >= 1 ×10⁻⁶ cm/s?
Result string: F

Query string: For this compound, is measured Papp A→B 1 ×10⁻⁶ cm/s or higher? COc1ccc2c(c1)c(/C=C1\Oc3cc(OC(=O)N(C)c4ccccc4)cc(OC(=O)N(C)c4ccccc4)c3C1=O)cn2CCCN(C)C [Example 2]
Result string: F

Query string: Given COc1ccc2c(c1)c(/C=C1\Oc3cc(O)cc(O)c3C1=O)cn2CCCN(C)C , state whether its Papp A→B is at least 1 ×10⁻⁶ cm/s.
Result string: T

Query string: Exam item: decide whether the reported Papp A→B for COc1ccc2c(c1)c(/C=C1\Oc3cc(OC(=O)N(C(C)C)C(C)C)cc(OC(=O)N(C(C)C)C(C)C)c3C1=O)cn2CCCN(C)C [Example 4] is at least 1 ×10⁻⁶ cm/s.
Result string: F

Query string: # bool: Papp A→B of CN(C)C(=O)Oc1cc(OC(=O)N(C)C)c2c(c1)O/C(=C\c1cn(C)c3cccc(-c4ccccc4)c13)C2=O [Example 48] >= 1 ×10⁻⁶ cm/s
Result string: F

====

Assay: In vivo blood/plasma and tumor levels of prodrug and metabolites after 50 mg, kg po
Settings: 50 mg, 6 h (third value)
value.type: plasma prodrug concentration

Answered cases to consult:
[
  {
    "chem.smiles": "CCOP(=O)(OCC)Oc1ccc2c(c1)O/C(=C\\c1c(-c3ccccc3)[nH]c3ccc(OC)cc13)C2=O",
    "plasma prodrug concentration": "bql"
  },
  {
    "chem.smiles": "COc1ccc2[nH]c(-c3ccccc3)c(/C=C3\\Oc4cc(OC(=O)N(C)C)cc(OC(=O)N(C)C)c4C3=O)c2c1",
    "plasma prodrug concentration": "20 ng, ml"
  },
  {
    "chem.smiles": "COc1ccc2c(c1)c(/C=C1\\Oc3cc(OC(=O)N(C)C)cc(OC(=O)N(C)C)c3C1=O)c(C)n2CCN1CCN(C)CC1",
    "plasma prodrug concentration": "2027, ng, ml"
  },
  {
    "chem.smiles": "COc1ccc2c(c1)c(/C=C1\\Oc3cc(OC(=O)N(C)C)cc(OC(=O)N(C)C)c3C1=O)cn2CCCN(C)C",
    "plasma prodrug concentration": "2170, ng, ml"
  }
]

Consider the additional compound presented here.
Query string: Need plasma prodrug concentration of COc1ccc2c(c1)c(/C=C1\Oc3cc(OC(=O)N(C(C)C)C(C)C)cc(OC(=O)N(C(C)C)C(C)C)c3C1=O)c(C)n2CCN1CCN(C)CC1 , thanks.
Result string: 1106 ng, ml

====

Assay: Buffer Stability (37° C.)
Conditions: pH 4.5
Given measured Buffer Stability (37° C.) % Remaining (at 16-23 hours) pH 4.5, output Condition met if it is greater than or equal to 90% and Condition not met if not.

A selection of reference data follows.
[
  {
    "chem.smiles": "COc1ccc2c(c1)c(/C=C1\\Oc3cc(OC(=O)CC(C)C)cc(OC(=O)CC(C)C)c3C1=O)cn2CCCN(C)C",
    "qualitative.label": "Condition not met"
  },
  {
    "chem.smiles": "COC(=O)Oc1cc(OC(=O)OC)c2c(c1)O/C(=C\\c1c(-c3ccccc3)[nH]c3ccc(OC)cc13)C2=O",
    "qualitative.label": "Condition not met"
  }
]

Query string: For this compound, is measured Buffer Stability (37° C.) % Remaining (at 16-23 hours) pH 4.5 90% or higher? CN(C)C(=O)Oc1cc(OC(=O)N(C)C)c2c(c1)O/C(=C\c1cn(C)c3cccc(-c4ccccc4)c13)C2=O
Result string: Condition met

Query string: Does the compound COc1ccc2[nH]c(-c3ccccc3)c(/C=C3\Oc4cc(OC(=O)c5ccccc5)ccc4C3=O)c2c1 have recorded Buffer Stability (37° C.) % Remaining (at 16-23 hours) pH 4.5 that is 90% or more?
Result string: Condition met

Query string: Answer whether Buffer Stability (37° C.) % Remaining (at 16-23 hours) pH 4.5 of COc1ccc2c(c1)c(/C=C1\Oc3cc(O)cc(O)c3C1=O)cn2CCCN(C)C is greater than or equal to 90%.
Result string: Condition met

Query string: Tell me whether Buffer Stability (37° C.) % Remaining (at 16-23 hours) pH 4.5 is at least 90% here: COc1ccc2c(c1)c(/C=C1\Oc3cc(OC(=O)C(C)(C)C)cc(OC(=O)C(C)(C)C)c3C1=O)cn2CCCN(C)C
Result string: Condition met

Query string: Tell me whether Buffer Stability (37° C.) % Remaining (at 16-23 hours) pH 4.5 is at least 90% here: COc1ccc2[nH]c(-c3ccccc3)c(/C=C3\Oc4cc(OC(=O)Oc5ccccc5)cc(OC(=O)Oc5ccccc5)c4C3=O)c2c1
Result string: Condition not met
